system: MEK4; construct: gene MAP2K4; details: concentration: 1 μM, replicates: in singlicate; n = 1;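 also: KINOMEscan kinase panel screen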
measurement.type: %Inh
Record the result as number plus unit.

Recorded results for 2 molecules are shown here.
> print(dat)
                                   molecule  recorded.measurement
1  CC(C)c1nc(-c2cccc(NS(=O)(=O)c3c(F)cccc3F)c2F)c(-c2ccnc(Nc3ccc(N4CCOCC4)nc3)n2)s1                  100%
2  COc1ccc(-c2coc3ccc(-c4nnc(SCc5ccc(OC)c(C(F)(F)F)c5)o4)cc23)cc1                   30%

Batch request: %Inh per item, same order as input.
1. O=C(Nc1cccc(-c2nn3ccccc3c2-c2ccnc(Nc3cccc(F)c3)n2)c1)c1c(F)ccc(F)c1Cl
2. Cc1ccc(C(=O)Nc2ccc(Nc3ccnc4cc(-c5nccs5)ccc34)cc2O)cc1.Cl

1: 25%; 2: 21%

Batch request: %Inh per item, same order as input.
1. Cl.NC(=O)c1cccc(Nc2nccc(Nc3ccc(Oc4c(Cl)cccc4Cl)c(Cl)c3)n2)c1
2. Nc1n[nH]c2cnc(-c3ccccc3)cc12

1: 30%; 2: 37%

----------
For each entry below, report its %Inh value.
system: PIP5K1A; settings: concentration: 1 μM, replicates: in singlicate; n = 1
One number for each entry, in %.

> print(dat)
                                   molecule  recorded.measurement
1  Nc1ncc(-c2cccnc2)c2scc(-c3ccc4c(c3)CCN4C(=O)Cc3ccccc3)c12 [GSK683281]                     0

Batch request: %Inh per item, same order as input.
1. Nc1ncc(-c2ccc3nccc(-c4ccncc4)c3c2)cc1S(=O)(=O)N1CCOCC1 [GSK1627798]
2. O=C(Nc1cccc(-c2nn3ccccc3c2-c2ccnc(Nc3cccc(F)c3)n2)c1)c1c(F)ccc(F)c1Cl [GSK357952]
3. Nc1ncnc2c1nc(-c1ccccc1)n2-c1ccccc1 [SKF-97293]
4. O=C(Nc1ccccc1F)NC1CCN(c2ccnc(Nc3ccc(F)cc3)n2)CC1 [GSK1379800]
5. CNC(=O)c1ccccc1Nc1nc(Nc2ccc(N3CCOCC3)cc2)ncc1Cl.Cl [GSK1576028]
6. COc1cccc(C2=C(Nc3ccc(Cl)c(C(=O)O)c3)C(=O)NC2=O)c1 [SB-390769]
7. O=C(Nc1cccc(-c2nn3ncccc3c2-c2ccnc(Nc3ccccc3)n2)c1)c1c(F)cccc1F [GSK198271]

1: 0; 2: 0; 3: 13; 4: 1; 5: 45; 6: 19; 7: 0

----------
test system: AKT2; details: concentration: 1 μM, replicates: in singlicate; n = 1
For each entry below, report its %Inh value.

> print(dat)
                                   molecule  study.target  recorded.measurement
1  CCS(=O)(=O)c1ccc(OC)c(Nc2nccc(-c3c(-c4cccc(NC(=O)c5c(F)cccc5F)c4)nn4ncccc34)n2)c1          AKT2                   15%

Batch request: %Inh per item, same order as input.
1. COc1ccc(Nc2nccc(NCCNC(=O)c3cc4ccccc4s3)n2)cc1
2. Cc1cccc(NC(=O)Nc2ccc(Oc3ncnc4ccn(C)c34)cc2)c1
3. Nc1ncc(-c2ccc3nccc(-c4ccncc4)c3c2)cc1S(=O)(=O)N1CCOCC1
4. COc1cc(Nc2nccc(-c3c(-c4cccc(NC(=O)c5c(F)cccc5F)c4)nn4ccccc34)n2)cc(OC)c1OC
5. Cl.c1ccc(-c2ccc3c(Nc4ccc5[nH]ccc5c4)ccnc3c2)nc1
6. Clc1ccc(-c2nn3ncccc3c2-c2ccnc(Nc3ccc4c(c3)OCCO4)n2)cc1

1. 0%
2. 0%
3. 12%
4. 0%
5. 0%
6. 0%

Entry under test: "Oc1cc(Nc2ccnc3cc(I)ccc23)ccc1F" . Its %Inh was 16%
